# Test system: SNB-19 CNS
# Method notes: NCI tumour cell line growth inhibition, 48 h
Quantity kind: GI50

Record summary for Cn1cc(NC(=O)c2cc(NC(=O)c3ccc(C#Cc4ccccc4)cc3)cn2C)cc1C(=O)NCCCN1CCOCC1 : reported GI50 = > 32.5 µM

Record summary for O=C(CNc1nc(-c2ccccc2)cs1)Nc1ccc(Cl)cc1 : reported GI50 = 0.777 µM

Record summary for CCN1C(=O)N(CC)C2NNC(Sc3c(C(=O)O)c4ccccc4n(CCC(C)C)c3=O)=NC21 (centres undefined) : reported GI50 = 4.56 µM

Record summary for Cc1ccccc1Nc1nnc(-c2c[nH]c3ccccc23)o1 : reported GI50 = 3.36 µM

----------
# Tested on: MDA-MB-468 breast
# Method notes: NCI tumour cell line growth inhibition, 48 h; in the data active means GI50 below about 0.43 µM; inactive means the rest
Your answer must be one of the following: 1.0 = active, 0.0 = inactive

How did this test come out for Cc1ccccc1Nc1nnc(-c2c[nH]c3ccccc23)o1 ?
0.0

How did this test come out for Cc1ccc(C2CC(c3cccc(Nc4ccncc4)c3)=NN2c2cc(Cl)cc(Cl)c2)cc1 (stereo unspecified) ?
0.0

How did this test come out for COc1ccc2cnc(N)c(C#Cc3cc(C(=O)Nc4ccc(CN5CCN(C)CC5)c(C(F)(F)F)c4)cnc3C)c2c1 ?
0.0

How did this test come out for Cc1cc2nc(CS)[nH]c2cc1C ?
0.0

How did this test come out for O=C(Cc1ccc2c(c1)CN(C1CCC(=O)NC1=O)C2=O)NCCc1ccccc1 (stereo unspecified) ?
1.0

How did this test come out for CCOC(=O)c1cnc2c(C)cc(C)cc2c1NCCCN(C)C ?
0.0

----------
# Tested on: MDA-MB-468 breast
# Method notes: NCI tumour cell line growth inhibition, 48 h; in the data active means GI50 below about 0.43 µM; inactive means the rest
Your answer must be one of the following: label 1 for active, label 0 for inactive

How did this test come out for CCN1C(=O)N(CC)C2NNC(Sc3c(C(=O)O)c4ccccc4n(CCC(C)C)c3=O)=NC21 (centres undefined) ?
label 1

How did this test come out for N#Cc1c(NC(=O)c2cccc(C(F)(F)F)c2F)sc2c1CCC(=O)C2 ?
label 1

How did this test come out for c1ccc(-c2n(Cc3ccc4ccccc4n3)cc[n+]2Cc2ccc3ccccc3n2)cc1 ?
label 1

How did this test come out for CCOc1cc2ncc(C#N)c(Nc3ccc(F)c(Cl)c3)c2cc1NC(=O)CC1CCSS1 (centres undefined) ?
label 0

Where do these numbers come from? They come from PubChem BioAssay (NCI).
